- Test system: MDA-MB231
- testProtocol: MTT cytotoxicity assay, MDA-MB231
- Assay type: cell-based
- testParameters: Homo sapiens, MDA-MB-231, 48 h, read-out: IC50 MDA-MB231
Kindly supply the reported IC50 values for the records listed here.
# number only, unit nM dropped from output

# IC50 lookup, item N[C@@H](Cc1ccccc1)C(=O)N1C/C(=C\c2ccc([N+](=O)[O-])cc2)C(=O)/C(=C/c2ccc([N+](=O)[O-])cc2)C1 [RA183, reference compound] 124

Here is the next compound: O=C(CCl)N[C@@H](Cc1ccccc1)C(=O)N1C/C(=C\c2ccc([N+](=O)[O-])cc2)C(=O)/C(=C/c2ccc([N+](=O)[O-])cc2)C1 22

---

- Test system: HeLa
readoutKind: IC50
Report as: number unit

# IC50 lookup, item C=CC(=O)N1CC/C(=C\c2ccc(F)c([N+](=O)[O-])c2)C(=O)/C(=C/c2ccc(F)c([N+](=O)[O-])c2)C1 [VLX1570] 111 nM

---

- System: SKOV3-TR
- testProtocol: MTT cytotoxicity assay, SKOV3-TR
- testParameters: read-out: cytotoxicity IC50 SKOV3-TR; Tables 3A/4B/4C; MTT assay
Kindly supply the reported pIC50 values for the records listed here.
Reminder that pIC50 is minus the log10 of a molar concentration.

# pIC50 lookup, item N[C@@H](Cc1ccccc1)C(=O)N1C/C(=C\c2ccc([N+](=O)[O-])cc2)C(=O)/C(=C/c2ccc([N+](=O)[O-])cc2)C1 [RA183, reference compound] 7.11

Here is the next compound: N[C@@H](Cc1ccccc1)C(=O)N1C/C(=C\c2ccc(Cl)c(Cl)c2)C(=O)/C(=C/c2ccc(Cl)c(Cl)c2)C1 [RA190, reference compound] 6.96

Here is the next compound: C[C@H]1/C(=C\c2ccc([N+](=O)[O-])cc2)C(=O)/C(=C/c2ccc([N+](=O)[O-])cc2)CN1C(=O)[C@@H](N)Cc1ccccc1 7.22

Here is the next compound: O=C(CCl)N[C@@H](Cc1ccccc1)C(=O)N1C/C(=C\c2ccc([N+](=O)[O-])cc2)C(=O)/C(=C/c2ccc([N+](=O)[O-])cc2)C1 [RA375] 7.66

---

- Test system: SKOV3
- testProtocol: MTT cytotoxicity assay, SKOV3
- testParameters: read-out: cytotoxicity IC50 SKOV3; Tables 3A/4B/4C; MTT assay
readoutKind: IC50 (nM)
# number only, unit nM dropped from output

# IC50 lookup, item CC1NCC(=Cc2ccc([N+](=O)[O-])cc2)C(=O)C1=Cc1ccc([N+](=O)[O-])cc1 (racemic) 257

---

- Tested on: SiHa
- testProtocol: MTT cytotoxicity assay, SiHa
- testParameters: read-out: cytotoxicity IC50 SiHa; Tables 3A/4B/4C; MTT assay
readoutKind: IC50 (nM)
# number only, unit nM dropped from output

Query for SiHa: what IC50 does the record show for C[C@@H]1/C(=C\c2ccc([N+](=O)[O-])cc2)C(=O)/C(=C/c2ccc([N+](=O)[O-])cc2)CN1C(=O)[C@@H](N)Cc1ccccc1 [RA413R] ? 139

Here is the next compound: C[C@H]1/C(=C\c2ccc([N+](=O)[O-])cc2)C(=O)/C(=C/c2ccc([N+](=O)[O-])cc2)CN1C(=O)[C@@H](N)Cc1ccccc1 34

Here is the next compound: CC1/C(=C\c2ccc([N+](=O)[O-])cc2)C(=O)/C(=C/c2ccc([N+](=O)[O-])cc2)CN1C(=O)[C@H](Cc1ccccc1)NC(=O)CCl (some centres unmarked) [RA414] 7.5

Here is the next compound: N[C@@H](Cc1ccccc1)C(=O)N1C/C(=C\c2ccc(Cl)c(Cl)c2)C(=O)/C(=C/c2ccc(Cl)c(Cl)c2)C1 [RA190, reference compound] 603

Here is the next compound: N[C@@H](Cc1ccccc1)C(=O)N1C/C(=C\c2ccc([N+](=O)[O-])cc2)C(=O)/C(=C/c2ccc([N+](=O)[O-])cc2)C1 [RA183, reference compound] 263
